Reference source for all entries: ChEMBL document CHEMBL3871268

# PROTOCOL: Cytotoxicity against human PC3 cells assessed as reduction in cell viability measured after 72 hrs by MTT assay
# Type: functional
# MEASUREMENT CONDITIONS: PC-3, 72 h
Listing: TGI of selected molecules

| COMPOUND STRING | TGI |
| --- | --- |
| CSc1ccnc(SC)n1 | > 100 µM |
| Sc1nc2ccccc2s1 | > 100 µM |
| N#CSc1nccc(Cl)n1 | > 100 µM |
| N#C[Se]Cc1ccc(-n2cccc2)cc1 | > 100 µM |
| [SeH]Cc1cc2c(cc1Br)OCO2 | > 50 µM |
| Sc1ccnc(S)n1 | > 100 µM |
